System: UACC-257 melanoma
measurement description: NCI tumour cell line growth inhibition, 48 h
assay readout: TGI (µM)
Numbers only, in µM.

[[record]]
smiles_string = "CN(C)CCCOc1cccc(NC2=C(Cl)C(=O)C(Nc3cccc(OCCCN(C)C)c3)=C(Cl)C2=O)c1"
assay_readout = "TGI"
recorded_number = 2.28


## Input Determine its reported TGI: "O=C(c1ccc2ccccc2c1)c1nc2cc(F)ccc2[n+]([O-])c1C(F)(F)F"
## Output 35.3

* * *

Test system: RXF 393 renal
measurement description: NCI tumour cell line growth inhibition, 48 h
assay readout: GI50

Solved cases (6 shown):
[[record]]
molecule = "C=C(CN1CCc2c([nH]c3ccccc23)C1)c1ccc(C(=O)Nc2ccccc2N)cc1"
assay_readout = "GI50"
result = "4.27 µM"

[[record]]
molecule = "CC(C)(C)[Si](C)(C)OC1[C@@H](CNC(N)=O)O[C@@H](n2cnc3c(NC(=O)Nc4ccccc4)ncnc32)[C@H]1O[Si](C)(C)C(C)(C)C (some centres not stated)"
assay_readout = "GI50"
result = "1.95 µM"

[[record]]
molecule = "CCOc1cc(/C=C/C(=O)C(C(=O)/C=C/c2ccc(OC(=O)CNc3nc4ccccc4[nH]3)c(OCC)c2)C(=O)CNc2nc3ccccc3[nH]2)ccc1OC(=O)CNc1nc2ccccc2[nH]1"
assay_readout = "GI50"
result = "4.08 µM"

[[record]]
molecule = "CCCN(CCC)c1ccc(C=O)c(Cl)c1"
assay_readout = "GI50"
result = "14.2 µM"

[[record]]
molecule = "CC(C)(C)NCC(O)COc1c(Br)c(Br)c(Br)c2c1OC(C)(C)C2 (configuration not stated)"
assay_readout = "GI50"
result = "2.14 µM"

[[record]]
molecule = "C/C(=C(/c1ccccc1)c1ccc(OCC(O)CNCCN2CCOCC2)cc1)c1ccccc1 (configuration not stated)"
assay_readout = "GI50"
result = "1.91 µM"


## Input Give the reported value of GI50 for this record: "O=C(c1ccc2ccccc2c1)c1nc2cc(F)ccc2[n+]([O-])c1C(F)(F)F"
## Output 14.6 µM

* * *

System: HOP-92 NSCLC
measurement description: NCI tumour cell line growth inhibition, 48 h; in the data active means GI50 below about 0.43 µM; inactive means the rest
Form entry, call: pick from active, inactive

These recorded examples may help you get a feel for the data.
[[record]]
molecule = "Nc1c(C(=O)c2cccc(C#CCN3CCCCC3)c2)cnn1-c1ccc(F)cc1"
category_label = "inactive"

[[record]]
molecule = "c1ccc(-c2nc3n(c2-c2ccc4c(c2)OCO4)CCC3)nc1"
category_label = "inactive"

[[record]]
molecule = "CCOc1cc(/C=C/C(=O)C(C(=O)/C=C/c2ccc(OC(=O)CNc3nc4ccccc4[nH]3)c(OCC)c2)C(=O)CNc2nc3ccccc3[nH]2)ccc1OC(=O)CNc1nc2ccccc2[nH]1"
category_label = "inactive"


## Input Tell me the assay call for C/C(=C(/c1ccccc1)c1ccc(OCC(O)CNCCN2CCOCC2)cc1)c1ccccc1 (configuration not stated) please.
## Output inactive

## Input For this molecule, state the assay outcome: "C=C(CN1CCc2c([nH]c3ccccc23)C1)c1ccc(C(=O)Nc2ccccc2N)cc1"
## Output inactive

* * *

Test system: SF-268 CNS
measurement description: NCI tumour cell line growth inhibition, 48 h; in the data active = GI50 below about 0.43 µM; inactive = the rest
Choose the fitting class; nothing outside YES (active), NO (inactive) is accepted.

[[record]]
molecule = "Cc1cc(CCl)c(C)cc1CCl"
target_system = "SF-268 CNS"
category_label = "NO"


## Input # outcome recorded in this test, key = "C=C1C(=O)O[C@H]2[C@H]1CC/C(Cn1cc(-c3ccc(N)cc3)nn1)=C\CC[C@@]1(C)O[C@@H]21"
## Output NO

## Input Kindly provide the recorded test outcome for the following molecule: CCCC1(CN2c3ccccc3Sc3ccc(Cl)cc32)CCN(CC)C1 (centres undefined)
## Output NO

## Input Check the results log: what was the call for "Cn1cc(-c2cc(-c3cn(C)c4ccc(Cl)cc34)[nH]n2)c2cc(Cl)ccc21" ?
## Output NO

## Input Would you mind telling me which call this test gave "COc1ccc2c(c1)C(=O)/C(=C/c1cccc(OCC(=O)Nc3nc(C)c(C)s3)c1)O2" ?
## Output YES

## Input Query: recorded result category for "Cc1cc(N/N=C/c2nc(-c3ccc(Cl)cc3)oc2C)c2cc(Br)ccc2n1" in this test
## Output NO

## Input Hi, do you know how "CCN1[C@@H](C(=O)NC23CCC(C(=O)O)(CC2)CC3)[C@H](c2cccc(Cl)c2F)[C@]2(C(=O)Nc3cc(Cl)ccc32)C12CCCCC2" came out in this test?
## Output NO

* * *

Give TGI for every item shown.
Test system: SK-MEL-2 melanoma
measurement description: NCI tumour cell line growth inhibition, 48 h

[[record]]
molecule = "COc1ccc2c(c1)C(=O)/C(=C/c1cccc(OCC(=O)Nc3nc(C)c(C)s3)c1)O2"
target_system = "SK-MEL-2 melanoma"
assay_readout = "TGI"
result = "0.047 µM"


Batch lookup, TGI per entry.
1. CSc1ncnc2c1ncn2CC(=O)C1CCC2C3CCC4=CC(=O)CCC4(C)C3CCC12C (stereo unspecified)
2. Cc1cccc2[nH]c3c(c(O)cc4[nH]c5cccc(C)c5c(=O)c43)c(=O)c12
3. Clc1ccccc1CN1COc2c(ccc3cccnc23)C1
4. N=c1c2ccccc2sc2nc3ccccc3n12
5. O=c1[nH]nc(Cc2ccccc2)n1/N=C/c1ccco1

## Output
1. 11.6 µM
2. > 10 µM
3. 6.63 µM
4. > 100 µM
5. > 100 µM

* * *

Tested on: OVCAR-4 ovarian
measurement description: NCI tumour cell line growth inhibition, 48 h
Record form. Attribute: TGI. Fill in for each entry.

The following molecules have reported results that may help.
[[record]]
molecule = "c1ccc2cc3c(NC4=NCCO4)cccc3cc2c1"
assay_readout = "TGI"
result = "> 100 µM"

[[record]]
molecule = "CCOP(=O)(OCC)/C(C#N)=C/c1ccccn1"
assay_readout = "TGI"
result = "> 100 µM"

[[record]]
molecule = "C1=Cc2nc1c(-c1ccccc1)c1ccc([nH]1)c(-c1ccccc1)c1nc(c(-c3ccccc3)c3ccc([nH]3)c2-c2ccccc2)C=C1"
assay_readout = "TGI"
result = "> 100 µM"


Could I get TGI for every one of these entries?
1. CC1(C)CO[P@@](=S)(c2ccccn2)O[C@@H]1c1ccccc1
2. COc1ccc(C2=NC(=O)NC2c2ccc(OC)cc2)cc1 (stereo not given)
3. COc1ccc(Nc2nc(Nc3cc(C)[nH]n3)c3cc(OC)c(OC)cc3n2)cc1
4. CN(C)CCCOc1cccc(NC2=C(Cl)C(=O)C(Nc3cccc(OCCCN(C)C)c3)=C(Cl)C2=O)c1
5. CN(C)C(=S)/N=c1\ssc(=S)n1C
6. COc1cc([C@@H]2c3cc4c(cc3[C@H](OC(C)=O)[C@H]3COC(=O)[C@@H]23)OCO4)cc(OC)c1OC
7. COC(=O)C1Cc2c(OC)ccc(OC)c2C(O)C1C(=O)OC (stereo not given)

## Output
1: > 100 µM; 2: > 100 µM; 3: 2.22 µM; 4: 0.592 µM; 5: > 100 µM; 6: > 100 µM; 7: > 100 µM

* * *

System: OVCAR-5 ovarian
measurement description: NCI tumour cell line growth inhibition, 48 h
assay readout: TGI

Parameters: items (list). Returns: TGI for each item.
1. C=C1C(=O)O[C@H]2[C@H]1CC/C(COC(=O)NCc1ccc(Cn3c(=O)sn(CCCCC)c3=O)cc1)=C\CC[C@@]1(C)O[C@@H]21
2. N#CCCN(CCC#N)c1ccc(/C=C2\N=C(c3ccccc3)N(c3ccc(C(=O)O)cc3)C2=O)cc1
3. Cc1cccc2oc3c(c(=O)c12)CC(O)C(C)(C)O3 (stereo not given)
4. COc1ccc(/C=C(\NC(=O)c2ccccc2)c2nc3ccccc3[nH]2)cc1OC
5. N=c1oc2ccccc2cc1-c1nc2ccccc2[nH]1

## Output
["4.91 µM", "> 100 µM", "> 100 µM", "> 100 µM", "> 100 µM"]

* * *

Test system: SK-MEL-5 melanoma
measurement description: NCI tumour cell line growth inhibition, 48 h
assay readout: TGI (µM)
Numbers only, in µM.

[[record]]
compound = "COc1ccc(/C=C2/C(=O)N(C(=O)c3ccccc3O)N=C2C)cc1"
assay_readout = "TGI"
recorded_number = 9.56

[[record]]
compound = "C/C(=N\\NC(=S)N1CCC(N2CCCCC2)CC1)c1ccccn1"
assay_readout = "TGI"
recorded_number = 8.22

[[record]]
compound = "Cc1ccc(S(=O)C[C@](NC(=O)OCc2ccccc2)(Sc2ccccc2)C(F)F)cc1 (stereo not given in full)"
assay_readout = "TGI"
recorded_number = 28

[[record]]
compound = "Cc1cc(CCl)c(C)cc1CCl"
assay_readout = "TGI"
recorded_number = 17.2


Let us move to another entry and its TGI.
## Input Hello, please tell me recorded TGI for this one: "CC(=O)O[C@H]1CC[C@@]2(C)C(=CC[C@@H]3[C@@H]2CC[C@]2(C)c4c(n[nH]c4C)C[C@@H]32)C1"
## Output 29.5
